Each record here notes measured kon.
assayed system: T1, recombinant human TfR-1, His-tagged (Sino Biological 11020-H07H) (human, UniProt P02786 89-760)
T1 construct: bought; His-tagged; also called hTfR1; hTfR-1
T1 sequence (P02786 89-760 limits assumed): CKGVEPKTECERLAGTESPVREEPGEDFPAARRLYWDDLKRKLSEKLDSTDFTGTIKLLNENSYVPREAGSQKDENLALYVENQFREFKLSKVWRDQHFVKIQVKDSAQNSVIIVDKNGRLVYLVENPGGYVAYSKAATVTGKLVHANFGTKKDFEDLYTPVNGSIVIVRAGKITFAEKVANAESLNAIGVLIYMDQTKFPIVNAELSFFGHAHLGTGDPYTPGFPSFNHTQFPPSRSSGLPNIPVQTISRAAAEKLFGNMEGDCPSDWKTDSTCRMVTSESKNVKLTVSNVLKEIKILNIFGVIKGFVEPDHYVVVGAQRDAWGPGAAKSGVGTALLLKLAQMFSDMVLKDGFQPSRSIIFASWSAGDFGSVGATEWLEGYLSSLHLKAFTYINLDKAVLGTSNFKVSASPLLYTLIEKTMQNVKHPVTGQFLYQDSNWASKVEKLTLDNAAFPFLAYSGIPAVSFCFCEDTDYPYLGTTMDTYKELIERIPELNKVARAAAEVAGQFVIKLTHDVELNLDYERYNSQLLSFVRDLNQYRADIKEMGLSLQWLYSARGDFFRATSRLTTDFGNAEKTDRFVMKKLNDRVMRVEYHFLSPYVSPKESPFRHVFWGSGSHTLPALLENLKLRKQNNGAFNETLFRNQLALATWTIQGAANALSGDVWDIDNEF
assay notes: SPR, His-captured TfR1
Answer with the number, then the unit.

Examples from the recorded data:
Notebook: Clone C variant 22 VNAR-hFc (Fc fusion, not shown: a dimerising Fc or GST) ARVDQTPQTITKETGESLTINCVLRDSNCALSSTYWYRKKSGSTNEENISKGGRYVETVNSGSKSFSLRINDLTVEDSGTYRCNVVQYPSNNNYFWCDVYGDGTAVTVN , kon read as 74200 M⁻¹ s⁻¹

Lab note: Clone C variant 15 VNAR-hFc (Fc fusion, not shown: a dimerising Fc or GST) ARVDQTPQTITKETGESLTINCVLRDSNCALSSTYWYRKKSGSTNEENISKGGRYVETVNSGSKSFSLRINDLTVEDSGTYRCNVVQYPQQPNYFWCDVYGDGTAVTVN gave kon of 233000 M⁻¹ s⁻¹

Just so you know, measured kon for Clone C variant 4 VNAR-hFc (Fc fusion, not shown: a dimerising Fc or GST) ARVDQTPQTITKETGESLTINCVLRDSNCALSSTYWYRKKSGSTNEENISKGGRYVETVNSGSKSFSLRINDLTVEDSGTYRCNVVQRPSYNNYFWCDVYGDGTAVTVN came out at 35200 M⁻¹ s⁻¹

Consider Clone C variant 1 VNAR-hFc (Fc fusion, not shown: a dimerising Fc or GST) ARVDQTPQTITKETGESLTINCVLRDSNCALSSTYWYRKKSGSTNEENISKGGRYVETVNSGSKSFSLRINDLTVEDSGTYRCNVAQRPSYNNYFWCDVYGDGTAVTVN . Its measured kon is 115000 M⁻¹ s⁻¹

***
The binder listed as Clone C variant 7 VNAR-hFc (Fc fusion, not shown: a dimerising Fc or GST) ARVDQTPQTITKETGESLTINCVLRDSNCALSSTYWYRKKSGSTNEENISKGGRYVETVNSGSKSFSLRINDLTVEDSGTYRCNVVQWPSLSSPFWCDVYGDGTAVTVN shows kon equal to 110000 M⁻¹ s⁻¹

For Clone C variant 12 VNAR-hFc (Fc fusion, not shown: a dimerising Fc or GST) ARVDQTPQTITKETGESLTINCVLRDSNCALSSTYWYRKKSGSTNEENISKGGRYVETVNSGSKSFSLRINDLTVEDSGTYRCNVVQYPQQDNPFWCDVYGDGTAVTVN the binder record lists kon as 203000 M⁻¹ s⁻¹

Memo: Clone C variant 11 VNAR-hFc (Fc fusion, not shown: a dimerising Fc or GST) ARVDQTPQTITKETGESLTINCVLRDSNCALSSTYWYRKKSGSTNEENISKGGRYVETVNSGSKSFSLRINDLTVEDSGTYRCNVVQYPHYNNYFWCDVYGDGTAVTVN , reported kon: 191000 M⁻¹ s⁻¹

According to the records, this binder Clone C variant 18 VNAR-hFc (Fc fusion, not shown: a dimerising Fc or GST, also called Clone C v18; Clone C var; 18) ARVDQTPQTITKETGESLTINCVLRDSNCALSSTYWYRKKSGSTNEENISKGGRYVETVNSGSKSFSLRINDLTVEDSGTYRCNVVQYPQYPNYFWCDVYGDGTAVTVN displays kon of 360000 M⁻¹ s⁻¹

Ref: patent US20210403591A1
